The entries below come with measured viability at 48 h, 10 mM values attached.
procedure.text: Cell viability, resazurin assay, K562/Dox
Assay type: cell-based, human
assay.setup: human

>  <molecule>
O=C(O)c1ccc(O)cc1 [4-HBA, 4-Hydroxybenzoic acid]

>  <viability at 48 h, 10 mM>
75.4%

$$$$

# get_value(readout='viability at 48 h, 10 mM', item= COc1cc(C(=O)O)ccc1O [VA, 4-hydroxy-3-methoxybenzoic acid] )
53.5%

====

procedure.text: Cell viability, resazurin assay, K562
Format: cell-based, human
assay.setup: human, K562 cells (doxorubicin-sensitive leukemia)
experimental.endpoint: viability at 96 h, 10 mM (%)
Kindly answer with a numeric value in %, unit omitted.

>  <compound>
COc1cc(C(=O)O)ccc1O [VA, 4-hydroxy-3-methoxybenzoic acid]

>  <experimental.endpoint>
viability at 96 h, 10 mM

>  <quantitative.readout>
56.7

$$$$

Now examine the next entry.
# get_value(readout='viability at 96 h, 10 mM', item= O=C(O)c1ccc(O)cc1 [4-HBA, 4-Hydroxybenzoic acid] )
87.6

Entry source: paper PMC8278208
